Reported values of IC50 for individual entries
- experimental-system: PRMT5:MEP50 (Homo sapiens, UniProt O14744)
- Sequence (O14744 whole entry, species assumed): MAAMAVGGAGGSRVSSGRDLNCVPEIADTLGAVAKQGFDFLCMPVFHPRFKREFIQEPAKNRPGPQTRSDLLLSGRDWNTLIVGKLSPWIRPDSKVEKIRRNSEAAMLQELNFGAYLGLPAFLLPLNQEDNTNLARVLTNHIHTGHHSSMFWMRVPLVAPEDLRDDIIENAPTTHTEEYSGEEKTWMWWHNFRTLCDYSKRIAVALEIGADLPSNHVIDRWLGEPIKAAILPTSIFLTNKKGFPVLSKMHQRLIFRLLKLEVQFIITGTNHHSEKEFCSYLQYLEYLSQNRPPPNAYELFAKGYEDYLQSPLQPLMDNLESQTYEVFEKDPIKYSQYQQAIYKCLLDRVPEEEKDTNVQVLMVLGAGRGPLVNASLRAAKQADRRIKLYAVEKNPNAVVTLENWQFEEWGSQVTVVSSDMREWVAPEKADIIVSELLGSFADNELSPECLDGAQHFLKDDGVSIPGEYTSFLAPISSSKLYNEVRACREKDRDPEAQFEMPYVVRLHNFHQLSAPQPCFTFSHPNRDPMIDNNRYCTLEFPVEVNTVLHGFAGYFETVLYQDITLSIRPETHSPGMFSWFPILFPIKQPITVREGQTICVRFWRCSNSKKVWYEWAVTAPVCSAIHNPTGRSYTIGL
- Sequence (Q9BQA1 whole entry partner, species assumed): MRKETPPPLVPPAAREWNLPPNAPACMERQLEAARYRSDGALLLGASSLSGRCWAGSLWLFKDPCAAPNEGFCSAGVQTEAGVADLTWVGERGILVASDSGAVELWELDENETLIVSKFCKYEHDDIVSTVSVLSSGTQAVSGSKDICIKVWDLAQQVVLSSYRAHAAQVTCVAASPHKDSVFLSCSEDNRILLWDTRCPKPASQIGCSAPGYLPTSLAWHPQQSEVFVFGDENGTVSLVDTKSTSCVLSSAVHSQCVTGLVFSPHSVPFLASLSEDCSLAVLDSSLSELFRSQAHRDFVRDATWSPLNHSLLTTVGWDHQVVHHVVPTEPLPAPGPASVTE

Consider the reported IC50 for these compounds:
CN1C(N)=Nc2cc(CC[C@H]3O[C@@H](n4ccc5c(N)ncnc54)[C@H](O)[C@@H]3O)ccc2S1(=O)=O: 1 to 100 nM
Nc1ncnc2c1ccn2[C@@H]1C[C@H](CCc2ccc3c(=O)n(C4CC4)c(N)nc3c2)[C@@H](O)[C@H]1O: < 1 nM

Which measured IC50 belongs to "CC1(C)C(N)=Nc2cc(CC[C@H]3O[C@@H](n4ccc5c(N)ncnc54)[C@H](O)[C@@H]3O)ccc2S1(=O)=O" , tested on PRMT5:MEP50 (Homo sapiens, UniProt O14744)?
1 to 100 nM

What do we get for "C[C@@H]1CNc2nc3cc(CC[C@H]4O[C@@H](n5ccc6c(N)ncnc65)[C@H](O)[C@@H]4O)ccc3cc2O1" ?
1 to 100 nM

Repeat for the following compound: "CC1(C)Oc2ccc(CC[C@H]3O[C@@H](n4ccc5c(N)ncnc54)[C@H](O)[C@@H]3O)cc2N=C1N"
< 1 nM

Now consider "CC1(C)Oc2ccc(CC[C@H]3C[C@@H](n4ccc5c(N)ncnc54)[C@H](O)[C@@H]3O)cc2N=C1N" and answer again.
< 1 nM

Then "Nc1ncnc2c1ccn2[C@@H]1C[C@H](CCc2ccc3cc4c(nc3c2)NC(=O)CO4)[C@@H](O)[C@H]1O" ?
< 1 nM
